target_entity: USP7 (Homo sapiens)
Construct: The USP7 construct was PCR amplified and cloned into a pFLAG-CMV-6a vector (Sigma-Aldrich) with an N-terminal FLAG tag; made in house; host or cells: HEK293T
Sequence (Q93009 whole entry): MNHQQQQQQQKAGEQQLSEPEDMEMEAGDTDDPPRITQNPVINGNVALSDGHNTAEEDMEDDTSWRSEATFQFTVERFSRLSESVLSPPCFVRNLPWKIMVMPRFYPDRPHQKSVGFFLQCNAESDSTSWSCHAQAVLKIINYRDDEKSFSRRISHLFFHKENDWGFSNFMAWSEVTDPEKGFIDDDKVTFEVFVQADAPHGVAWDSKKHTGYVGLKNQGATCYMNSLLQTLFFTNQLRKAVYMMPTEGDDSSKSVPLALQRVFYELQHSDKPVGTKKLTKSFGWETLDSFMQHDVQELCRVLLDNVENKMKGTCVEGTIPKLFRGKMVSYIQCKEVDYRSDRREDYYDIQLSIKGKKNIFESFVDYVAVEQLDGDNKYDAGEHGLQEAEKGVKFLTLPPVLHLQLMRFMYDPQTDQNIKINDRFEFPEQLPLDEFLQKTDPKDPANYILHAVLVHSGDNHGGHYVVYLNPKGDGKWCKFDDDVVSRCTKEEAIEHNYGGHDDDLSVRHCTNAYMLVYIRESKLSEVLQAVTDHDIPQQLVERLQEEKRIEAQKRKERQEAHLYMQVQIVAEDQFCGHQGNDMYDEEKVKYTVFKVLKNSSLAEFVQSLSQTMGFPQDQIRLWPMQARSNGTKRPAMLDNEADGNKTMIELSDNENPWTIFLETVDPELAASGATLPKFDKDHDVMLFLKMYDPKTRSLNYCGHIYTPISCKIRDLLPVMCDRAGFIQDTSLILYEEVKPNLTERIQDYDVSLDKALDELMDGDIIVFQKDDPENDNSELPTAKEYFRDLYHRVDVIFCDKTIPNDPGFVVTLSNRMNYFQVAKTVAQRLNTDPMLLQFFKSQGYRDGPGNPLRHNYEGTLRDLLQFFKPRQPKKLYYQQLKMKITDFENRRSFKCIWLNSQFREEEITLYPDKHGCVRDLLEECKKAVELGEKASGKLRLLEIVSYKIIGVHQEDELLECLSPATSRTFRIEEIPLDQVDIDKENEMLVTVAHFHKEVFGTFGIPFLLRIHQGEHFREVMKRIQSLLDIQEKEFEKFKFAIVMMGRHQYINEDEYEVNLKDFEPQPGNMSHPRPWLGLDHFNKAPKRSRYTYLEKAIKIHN
assay_name: USP7 biochemical IC50 assay (fluorescence polarisation, TAMRA labelled peptide linked to ubiquitin via an iso-peptide bond)
condition_description: IC50 range, 30 min pre-incubation of enzyme and compound, read after 2 hr incubation at room temperature
pIC50: −log10 of the molar value.
result_type: pIC50

Record summary for N#CN1Cc2ncnc(N3CCC(OCc4ccccc4)CC3)c2C1 : reported pIC50 = 4.52 to 5.00

====

target_entity: USP7 (Homo sapiens)
Construct: The USP7 construct was PCR amplified and cloned into a pFLAG-CMV-6a vector (Sigma-Aldrich) with an N-terminal FLAG tag; made in house; host or cells: HEK293T
assay_name: USP7 biochemical IC50 assay (fluorescence polarisation, TAMRA labelled peptide linked to ubiquitin via an iso-peptide bond)
condition_description: 30 min pre-incubation of enzyme and compound, read after 2 hr incubation at room temperature, read-out: IC50 range
result_type: IC50

Looking up N#Cc1ccc(-c2cc(NC(=O)C3CCOCC3)cc3c2CN(C#N)C3)cc1 , I found its IC50 recorded as 1 to 10 µM

// recorded IC50 for Cc1[nH]ncc1-c1nc2c(c(N3CCCC3C(N)=O)n1)CN(C#N)C2 (stereo not drawn) : 10 to 30 µM

Lab book: IC50 of N#Cc1ccc(-c2c(F)ccc3c2CN(C#N)C3)c(C(N)=O)c1 noted as 1 to 10 µM

IC50 in this record for CN1CCC(CNc2nc3c(c(-c4ccccc4)n2)CN(C#N)C3)C1 (stereo not drawn) : 1 to 10 µM

Value of measured IC50 for the entry Cn1nccc1CNc1nc2c(c(-c3ccccc3)n1)CN(C#N)C2 : 1 to 10 µM

Sure, the documented IC50 for COCCc1cc2c(c(-c3ccc(C#N)cc3)c1)CN(C#N)C2 is 1 to 10 µM

Per the records, this molecule ( N#CN1Cc2cccc(-c3cnc4[nH]ccc4c3)c2C1 ) has IC50 equal to 1 to 10 µM

Noted for Cc1ccccc1-c1nc2c(c(N3CCCC3C(N)=O)n1)CN(C#N)C2 (stereo not drawn) : its IC50 reads 10 to 30 µM

Data point: CN1CC(C(=O)Nc2cc3c(c(-c4ccc(C#N)cc4)c2)CN(C#N)C3)CC1=O (stereo not drawn) ; IC50 = 1 to 10 µM

====

target_entity: USP7 (Homo sapiens)
Construct: The USP7 construct was PCR amplified and cloned into a pFLAG-CMV-6a vector (Sigma-Aldrich) with an N-terminal FLAG tag; made in house; host or cells: HEK293T
assay_name: USP7 biochemical IC50 assay (fluorescence polarisation, TAMRA labelled peptide linked to ubiquitin via an iso-peptide bond)
condition_description: 30 min pre-incubation of enzyme and compound, read after 2 hr incubation at room temperature, read-out: IC50 range
Procedure: In Vitro USP7 Inhibition Assay Expression and Purification of USP7 The USP7 construct was PCR amplified and cloned into a pFLAG-CMV-6a vector (Sigma-Aldrich) with an N-terminal FLAG tag. […] A typical 8-point dilution series would be 100, 30, 10, 3, 1, 0.3, 0.1, 0.03 μM final. […] Reactions were initiated by the addition of 50 nM of TAMRA labelled peptide linked to ubiquitin via an iso-peptide bond as fluorescence polarisation substrate. […]
pIC50: −log10 of the molar value.
result_type: pIC50

Hey, USP7 (Homo sapiens) data for CC(=O)Nc1nc2c(c(-c3cnn(C)c3)n1)CN(C#N)C2 [Example 107] : pIC50 came out at 4.52 to 5.00

USP7 (Homo sapiens) pIC50 of N#Cc1ccc(-c2cc(NC3CCS(=O)(=O)CC3)cc3c2CN(C#N)C3)cc1 [Example 273] is 5.00 to 6.00

Kindly note: USP7 (Homo sapiens), N#CN1Cc2cccc(-c3ccccc3C(N)=O)c2C1 [Example 157, 2-(2-cyanoisoindolin-4-yl)benzamide] , pIC50 value reported: 5.00 to 6.00

Bench note, USP7 (Homo sapiens): N#Cc1ccc(-c2cc(CNc3ccn[nH]3)cc3c2CN(C#N)C3)cc1 [Example 230] , pIC50 reads > 6.00

Item N#CN1Cc2cccc(NC(=O)c3ccc(-c4cccnc4)cc3)c2C1 [Example 81] was tested on USP7 (Homo sapiens); the reported pIC50 is 5.00 to 6.00

Hey, USP7 (Homo sapiens) data for N#Cc1cc2c(c(-c3ccc(F)cc3C(N)=O)c1)CN(C#N)C2 [Example 296] : pIC50 came out at 5.00 to 6.00

Bench note, USP7 (Homo sapiens): entry N#CN1Cc2cccc(NC(=O)c3cccc(NC(=O)c4ccccc4)c3)c2C1 [Example 90] , its pIC50 = 5.00 to 6.00

// pIC50 (USP7 (Homo sapiens)) for N#CN1Cc2nccc(-c3cccc(Cl)c3)c2C1 [Example 18] = 5.00 to 6.00

Value (pIC50, USP7 (Homo sapiens)) for record COc1ccc(-c2ccnc3c2CN(C#N)C3)cc1 [Example 17] = 5.00 to 6.00

Known value: USP7 (Homo sapiens) pIC50 of the compound CN1CCCC(C(=O)N(C)c2cc3c(c(-c4ccccc4)c2)CN(C#N)C3)C1 (stereo not shown) [Example 59] equals 5.00 to 6.00

Observed pIC50 on USP7 (Homo sapiens), entry CN1CCC[C@@H](C(=O)Nc2cc3c(c(-c4ccccc4)c2)CN(C#N)C3)C1 [Example 38] , equals > 6.00

USP7 (Homo sapiens) pIC50 of N#CN1Cc2cccc(-c3ccccc3C(=O)NCCn3cnccc3=O)c2C1 [Example 180] is 5.00 to 6.00

Observed pIC50 on USP7 (Homo sapiens), entry CCN(CC)c1cc2c(c(-c3ccc(C#N)cc3)c1)CN(C#N)C2 [Example 279] , equals 5.00 to 6.00

====

target_entity: USP7 (Homo sapiens)
Construct: The USP7 construct was PCR amplified and cloned into a pFLAG-CMV-6a vector (Sigma-Aldrich) with an N-terminal FLAG tag; made in house; host or cells: HEK293T
assay_name: USP7 biochemical IC50 assay (fluorescence polarisation, TAMRA labelled peptide linked to ubiquitin via an iso-peptide bond)
condition_description: 30 min pre-incubation of enzyme and compound, read after 2 hr incubation at room temperature, read-out: IC50 range
What IC50 was measured for each of the following?

Lab book: IC50 of CNC(=O)c1cc2c(c(-c3cc(OC)cnc3C#N)c1)CN(C#N)C2 noted as 1 to 10 µM

compound N#Cc1ccc(-c2cccc3c2CN(C#N)C3)cc1 , IC50 observed: 1 to 10 µM

The compound listed as N#CN1Cc2cc(NC(=O)C3CCCNC3)cc(-c3ccccc3)c2C1 (stereo not shown) shows IC50 equal to < 1 µM

Reported IC50 of CC(=O)Nc1cc2c(c(-c3ccccc3C(N)=O)c1)CN(C#N)C2 : 1 to 10 µM

Entry CS(=O)(=O)c1ccccc1-c1cccc2c1CN(C#N)C2 ; IC50 = 1 to 10 µM

Value of IC50 reported for the compound N#CN1Cc2ncnc(N3CCc4ccccc4C3)c2C1 is 1 to 10 µM

Entry N#CN1Cc2cccc(-c3ccccc3S(N)(=O)=O)c2C1 ; IC50 = 1 to 10 µM

Reported IC50 of N#CN1Cc2nc(-c3ccccc3C(N)=O)nc(N3CCc4ccccc4C3)c2C1 : 1 to 10 µM

Kindly note the recorded IC50 for N#Cc1ccc(-c2cc(C(=O)N3CCS(=O)(=O)CC3)cc3c2CN(C#N)C3)cc1 , which is 1 to 10 µM

Form: compound = CC(=O)N(C)c1cc2c(c(-c3ccccc3)c1)CN(C#N)C2 ; IC50 = 1 to 10 µM

// IC50 lookup, compound = N#Cc1ccc(-c2cccc3c2CN(C#N)C3)c(Cl)c1 , result: 1 to 10 µM

response.value for Cc1ccccc1OC1CCN(c2ncnc3c2CN(C#N)C3)CC1 (field: IC50) = 1 to 10 µM

Entry Cn1cc(Nc2nc3c(c(-c4ccccc4)n2)CN(C#N)C3)cn1 — recorded IC50 = 1 to 10 µM

compound N#CN1Cc2cccc(NC(=O)c3ccc(-c4ccncc4)cc3)c2C1 , IC50 observed: 1 to 10 µM

Query N#Cc1ccc(-c2nc(NCCO)nc3c2CN(C#N)C3)cc1 yields IC50 of 10 to 30 µM

The value of IC50 measured for the compound CN1CC(C(=O)Nc2cc3c(c(-c4ccccc4)c2)CN(C#N)C3)CC1=O (stereo not shown) turned out to be < 1 µM

The reported IC50 of the compound CN1CCC[C@@H](C(=O)Nc2cc3c(c(-c4ccc(F)cc4)c2)CN(C#N)C3)C1 was < 1 µM

Notebook: COc1ccc(C#N)c(-c2cc(C(N)=O)cc3c2CN(C#N)C3)c1 , IC50 read as 1 to 10 µM

Consider CN(C)CC(=O)Nc1cc2c(c(-c3ccccc3)c1)CN(C#N)C2 . Its measured IC50 is < 1 µM

Data provenance: patent US10683269B2
